Numbers sourced from patent US20020106348A1.

- System: Raji
- Assay text: MTT assay, Raji cells
- Format: cell-based
- Condition description: Homo sapiens, Raji (mutant p53)
Assay metric: IC50

Quick note, IC50 for COc1cc2c(cc1O)CC[C@@H]1[C@@H]2CC[C@]2(C)[C@@H](O)CC[C@@H]12 landed at < 1 µM

====

- Tested system: bovine CuZnSOD (Bos taurus, UniProt P00442)
- Sequence (P00442 whole entry): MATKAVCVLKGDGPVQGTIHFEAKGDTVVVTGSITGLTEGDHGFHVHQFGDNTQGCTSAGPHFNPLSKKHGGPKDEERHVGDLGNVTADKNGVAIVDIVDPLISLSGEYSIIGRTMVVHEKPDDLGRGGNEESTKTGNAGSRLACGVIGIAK
Assay metric: IC50

Measured IC50 for this entry COc1cc2c(cc1O)CC[C@@H]1[C@@H]2CC[C@]2(C)[C@@H](O)CC[C@@H]12 on bovine CuZnSOD (Bos taurus, UniProt P00442): ~20 µM

====

- System: ML-1
- Assay text: MTT assay, ML-1 leukemia cells
- Type: cell-based
- Condition description: Homo sapiens, ML1, ML-1 (wt p53)
pIC50: −log10 of the molar value.
Assay metric: pIC50

Entry COc1cc2c(cc1O)CC[C@@H]1[C@@H]2CC[C@]2(C)[C@@H](O)CC[C@@H]12 , pIC50 reported as > 6.00
